Experiment: chemical genetic growth profiling, strain panel (AID 1159580);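 note: tested at 20 µM; growth read once vehicle control cultures reached saturation at 30 °C; 1 = growth at the plate median or of vehicle wells; lower values mean less growth of the strain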
Settings: S. cerevisiae deletion strains, growth OD, locus YJR066W, strain TOR1, hits give low values
The campaign covered roughly 5,500 compounds. About 2,000 (36%) were called active. Not shown: some 18% with an inconclusive outcome. The list shows a part of the results.
quantityName: normalized growth

Example entries and their recorded answers appear below.
[[record]]
compound = "CO/N=C(\\C(=O)NC1C(=O)N2C(C(=O)OC(C)OC(C)=O)=C(COC(N)=O)CSC12)c1ccco1 (stereo not given)"
observedvalue = "0.989 (inactive)"

[[record]]
compound = "FC(F)(F)c1cccc(-n2c(CSCc3cccc4ccccc34)n[nH]c2=S)c1"
observedvalue = "1.09 (inactive)"

[[record]]
compound = "OCCOCCN1CCN(C2=Nc3ccccc3Sc3ccccc32)CC1"
observedvalue = "0.978 (inactive)"

[[record]]
compound = "Clc1cccc(Cl)c1NC1=NCCN1"
observedvalue = "0.996 (inactive)"

[[record]]
compound = "Cc1c(-c2ccnn2C(=O)c2ccco2)cnn1-c1ccccc1"
observedvalue = "0.89 (inactive)"


INPUT: Can you share its normalized growth? I mean this compound: CO/N=C(\C(=O)NC1C(=O)N2C(C(=O)O)=C(COC(N)=O)CSC12)c1ccco1 (stereo not given)
OUTPUT: 0.972 (inactive)

INPUT: Consider the compound shown here: Cc1c(C(=O)N(Cc2ccccc2)Cc2cccs2)cnn1-c1ccc(Cl)cc1 What is its recorded normalized growth?
OUTPUT: 1.02 (inactive)

INPUT: What value of normalized growth has been recorded for this entry: CC1(C)O[C@H]2[C@H](O)C[C@](O)(C(N)=O)C[C@H]2O1
OUTPUT: 0.951 (inactive)

INPUT: May I ask what normalized growth has been recorded for O=c1c2ccccc2[nH]c(=S)n1-c1cccc(C(F)(F)F)c1 ?
OUTPUT: 0.799 (inactive)

INPUT: Look up normalized growth: CO/N=C(\C(=O)N[C@@H]1C(=O)N2C(C(=O)O)=C(CSc3nc(=O)c(O)nn3C)CS[C@H]12)c1csc(N)n1
OUTPUT: 0.965 (inactive)

---

Test: chemical genetic growth profiling, strain panel (AID 1159580)
Settings: S. cerevisiae deletion strains, growth OD, locus YOR070C, strain gyp1
In all, about 5,500 compounds went through this assay and about 2,000 (36%) were called active. Inconclusive results (about 18%) are left out. No stated cut-off is given here; in the data, active means normalized growth mostly below about 0.91 (no sharp cut-off); inconclusive means no clear call, values can overlap the other calls; inactive means mostly above about 0.92. This is one part of the list.
Field 'call' accepts active, inactive

[[record]]
compound = "C#CCCCCCCCCCCCC(O)CC(O)COC(C)=O (stereo unspecified)"
classlabel = "active"


INPUT: Write down the call the test reported for this compound. Item: CCC(C)C(=O)O[C@H]1C[C@H](O)C=C2C=C[C@H](C)[C@H](CC[C@@H](O)C[C@@H](O)CC(=O)O)C21 (stereo partly specified)
OUTPUT: inactive

INPUT: Returns: the outcome recorded for CCCCN1CCCCC1C(=O)Nc1c(C)cccc1C (stereo unspecified) in this assay.
OUTPUT: inactive

---

Some compounds, each annotated with its measured normalized growth.
Assay: chemical genetic growth profiling, strain panel (AID 1159580)
Settings: S. cerevisiae deletion strains, growth OD, locus YHR094C, strain hxt1, hits give low values
The campaign covered roughly 5,500 compounds. About 2,000 (36%) were called active. Inconclusive results (about 18%) are left out. Some of the results follow.
Write no unit; give the number alone.

Examples from the recorded data:
[[record]]
compound = "Oc1ccc(Cl)cc1Cc1cc(Cl)ccc1O"
observedvalue = 0.0607

[[record]]
compound = "Oc1ccc(Cl)cc1"
observedvalue = 0.974


INPUT: Endpoint output: normalized growth of COC(=O)C(O)c1ccccc1 (configuration not stated) . Value?
OUTPUT: 0.983

INPUT: # get_value(readout='normalized growth', item= NC(=O)c1cccc(N)c1 )
OUTPUT: 0.998

---

Test: chemical genetic growth profiling, strain panel (AID 1159580)
Settings: S. cerevisiae deletion strains, growth OD, locus YHR027C, strain rpn1, hits give low values
Hit rate of the full screen: of about 5,500 compounds, about 2,000 (36%) were called active. Not shown: some 18% with an inconclusive outcome. Some of the results follow.
Mark satisfied for normalized growth under 1, not satisfied if at or over.

[[record]]
smiles = "Nc1ccc(N=Nc2ccccc2)c(N)n1"
classlabel = "satisfied"

[[record]]
smiles = "CCN(CC)CCOC(=O)c1ccc(N)cc1"
classlabel = "satisfied"

[[record]]
smiles = "CCCCC(=O)Oc1ccccc1C(=O)O"
classlabel = "satisfied"

[[record]]
smiles = "CC(C)C(=O)Nc1ccc([N+](=O)[O-])c(C(F)(F)F)c1"
classlabel = "not satisfied"


Now let's try a different one.
INPUT: Identify whether the compound CCCCCCOc1ccccc1C(N)=O records normalized growth below 1.
OUTPUT: satisfied

---

Below: a set of entries, each annotated with reported normalized growth.
Test: chemical genetic growth profiling, strain panel (AID 1159580)
Details: S. cerevisiae deletion strains, growth OD, locus YNL153C, strain GIM3, hits give low values
Among all 5,500 compounds or so, about 2,000 (36%) were called active. Another 18% or so got no clear call; they are omitted. The list shows a part of the results.
Format: numeric value only, no unit, no commentary.

Before answering, review these 3 worked examples.
[[record]]
smiles = "c1ccc(-c2cc3c(ccc4nonc43)nn2)cc1"
quantityname = "normalized growth"
observedvalue = 0.955

[[record]]
smiles = "COc1ccccc1N=C(N)SCc1ccccc1"
quantityname = "normalized growth"
observedvalue = 1

[[record]]
smiles = "Cc1cc(-c2ccccc2)nnc1NCCN1CCOCC1"
quantityname = "normalized growth"
observedvalue = 1.01


Here is the next item to consider.
INPUT: Entry under review: CC(C)[C@@H]1CC[C@@H](C)C[C@H]1O . Reported normalized growth?
OUTPUT: 0.95

---

Experiment: chemical genetic growth profiling, strain panel (AID 1159580);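 note: tested at 20 µM; growth read once vehicle control cultures reached saturation at 30 °C; 1 = growth at the plate median or of vehicle wells; lower values mean less growth of the strain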
Conditions: S. cerevisiae deletion strains, growth OD, locus YML016C, strain PPZ1, hits give low values
Among all 5,500 compounds or so, about 2,000 (36%) were called active. Not shown: some 18% with an inconclusive outcome. Some of the results follow.
normalized growth values, listed per item
Hey, just send me the number, nothing else.

The examples below pair each entry with its known result.
[[record]]
compound = "COc1ccc2c(c1OC)C(=O)OC2[C@H]1c2c(cc3c(c2OC)OCO3)CCN1C (some centres not stated)"
observedvalue = 1

[[record]]
compound = "CC(C)COCC(CN(Cc1ccccc1)c1ccccc1)N1CCCC1 (configuration not stated)"
observedvalue = 0.973

[[record]]
compound = "CC[C@H](C)C(=O)O[C@H]1C[C@@H](C)C=C2C=C[C@H](C)[C@H](CC[C@@H]3C[C@@H](O)CC(=O)O3)[C@H]21"
observedvalue = 0.977

[[record]]
compound = "COC(=O)C(C)c1ccc(C(=O)c2cccs2)cc1 (configuration not stated)"
observedvalue = 0.993

[[record]]
compound = "Cc1ccc(C)c(OCCCC(C)(C)C(=O)O)c1"
observedvalue = 0.951

[[record]]
compound = "CC1(C)C2(Cl)C(Cl)C(Cl)C(Cl)(C(Cl)Cl)C1(Cl)C2Cl (configuration not stated)"
observedvalue = 0.984


Turning now to a further compound:
INPUT: Any idea what normalized growth was measured for CC1C[C@H]2CC(=O)[C@H]3CCCN4CCC[C@H]2[C@]34C1 (some centres not stated) ?
OUTPUT: 1.01

---

Assay: chemical genetic growth profiling, strain panel (AID 1159580);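 note: tested at 20 µM; growth read once vehicle control cultures reached saturation at 30 °C; 1 = growth at the plate median or of vehicle wells; lower values mean less growth of the strain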
Details: S. cerevisiae deletion strains, growth OD, locus YJL168C, strain set2, hits give low values
Among all 5,500 compounds or so, about 2,000 (36%) were called active. Not shown: some 18% with an inconclusive outcome. Some of the results follow.
quantityName: normalized growth

Before answering, review these 5 worked examples.
[[record]]
molecule = "COc1cc2c(cc1OC)C1Cc3ccc(OC)c(OC)c3CN1CC2 (stereo unspecified)"
observedvalue = "0.989 (inactive)"

[[record]]
molecule = "O=c1[nH]oc2c1CCNC2"
observedvalue = "0.988 (inactive)"

[[record]]
molecule = "O=C(O)CN(CC(=O)O)Cc1cc2c(-c3ccccc3C(=O)O)c3cc(CN(CC(=O)O)CC(=O)O)c(=O)cc-3oc2cc1O"
observedvalue = "1.01 (inactive)"

[[record]]
molecule = "COC(=O)C(O)c1ccccc1 (stereo unspecified)"
observedvalue = "0.976 (inactive)"

[[record]]
molecule = "COc1cc([C@@H]2c3cc4c(c(O)c3C[C@H]3COC(=O)[C@@H]32)OCO4)cc(OC)c1OC"
observedvalue = "0.985 (inactive)"


Now look at this one.
INPUT: What value of normalized growth has been reported for the following molecule? O=C(O)c1cc2cc(Cc3cccnc3)ccc2o1
OUTPUT: 0.991 (inactive)

---

Assay: chemical genetic growth profiling, strain panel (AID 1159580);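 note: tested at 20 µM; growth read once vehicle control cultures reached saturation at 30 °C; 1 = growth at the plate median or of vehicle wells; lower values mean less growth of the strain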
Settings: S. cerevisiae deletion strains, growth OD, locus YEL037C, strain rad23
About 2,000 (36%) of roughly 5,500 compounds were called active. Another 18% or so got no clear call; they are omitted. Cut-off read from the data, not from the text of the source: active = normalized growth mostly below about 0.91 (no sharp cut-off); inconclusive = no clear call, values can overlap the other calls; inactive = mostly above about 0.92. This is one part of the list.
Permitted responses: active, inactive

Consider the following illustrative entries.
[[record]]
compound = "CC1(C)NC(=O)N(c2ccc([N+](=O)[O-])c(C(F)(F)F)c2)C1=O"
classlabel = "inactive"

[[record]]
compound = "O=c1cc(-c2ccccc2O)oc2cc(O)ccc12"
classlabel = "inactive"

[[record]]
compound = "CC[N+](CC)(CC)CCOc1cccc(OCC[N+](CC)(CC)CC)c1OCC[N+](CC)(CC)CC"
classlabel = "inactive"

[[record]]
compound = "C=CCSCC1Nc2cc(Cl)c(S(N)(=O)=O)cc2S(=O)(=O)N1 (stereo not drawn)"
classlabel = "inactive"

[[record]]
compound = "CC1=CC2C(CC1=O)C(C)=CCC2C(C)C (stereo not drawn)"
classlabel = "inactive"

[[record]]
compound = "CC[C@H](C)C(=O)O[C@H]1C[C@@H](C)C=C2C=C[C@H](C)[C@H](CC[C@@H]3C[C@@H](O)CC(=O)O3)[C@H]21"
classlabel = "inactive"

[[record]]
compound = "Nc1nc2ncc(=O)[nH]c2c(=O)[nH]1"
classlabel = "inactive"

[[record]]
compound = "Oc1ccc(Cl)cc1"
classlabel = "inactive"


INPUT: Short answer needed: outcome of this test for CC1OC1P(=O)(O)O (stereo not drawn) ?
OUTPUT: inactive

INPUT: Per the assay record, what outcome was assigned to CC(C)NCC(O)c1cc(O)cc(O)c1 (stereo not drawn) ?
OUTPUT: inactive

INPUT: In this assay, the call recorded for CC(C)NCC(O)COc1cccc2ccccc12 (stereo not drawn) was what?
OUTPUT: inactive

INPUT: Assay result, entry CC(C)(C)CC(C)(C)c1ccc(O)c(Cc2ccc(Cl)cc2Cl)c1 — outcome?
OUTPUT: inactive

INPUT: Check the results log: what was the call for O=c1[nH]oc2c1CCNC2 ?
OUTPUT: inactive

INPUT: For Clc1cccc(Cl)c1NC1=NCCN1 , which call appears in the assay record?
OUTPUT: inactive

INPUT: # outcome recorded in this test, key = CCC(C)(C)C(=O)O[C@H]1C[C@@H](C)C=C2C=C[C@H](C)[C@H](CC[C@@H]3C[C@@H](O)CC(=O)O3)[C@H]21
OUTPUT: inactive

INPUT: Can you look up the reported call for O=C(O)c1ccccc1-c1c2cc(Br)c(=O)cc-2oc2[c]([Hg])c(O)c(Br)cc12 for me?
OUTPUT: inactive

INPUT: Just curious, what result did C=C1CCC(OC(C)=O)/C(C)=C/C[C@@H]2[C@@H]1CC2(C)C (stereo partly drawn) get here?
OUTPUT: inactive
